- system name: T1, human mutCALR on BaF3 cells stably expressing human MPL and human mutCALR (MPL-mutCALR cells) (human)
- T1 construct: also called mutant calreticulin
- T1 chain: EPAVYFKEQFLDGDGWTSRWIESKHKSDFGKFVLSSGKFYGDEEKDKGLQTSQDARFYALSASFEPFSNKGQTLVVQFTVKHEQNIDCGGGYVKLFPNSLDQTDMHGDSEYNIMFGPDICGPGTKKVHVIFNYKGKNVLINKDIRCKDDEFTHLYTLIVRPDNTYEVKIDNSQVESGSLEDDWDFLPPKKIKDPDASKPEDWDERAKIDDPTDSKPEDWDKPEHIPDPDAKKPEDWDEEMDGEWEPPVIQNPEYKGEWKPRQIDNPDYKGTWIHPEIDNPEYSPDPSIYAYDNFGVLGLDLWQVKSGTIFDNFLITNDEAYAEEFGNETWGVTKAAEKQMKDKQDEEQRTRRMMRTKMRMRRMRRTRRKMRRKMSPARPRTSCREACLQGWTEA
- test name: flow cytometry, BaF3 MPL-mutCALR cells

binder	MPL-mutCALR AUC
anti-mutCALR antibody clone 9 (antibody, human IgG1, lambda, V domains shown, human IgG1) VH: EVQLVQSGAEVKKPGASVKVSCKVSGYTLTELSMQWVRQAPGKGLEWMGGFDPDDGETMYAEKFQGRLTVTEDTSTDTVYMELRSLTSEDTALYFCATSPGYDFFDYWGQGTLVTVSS VL: SYVLTQPPSVSVAPGQTARIPCGGNNIGSKSVHWYQQKPGQAPVLVVYDDRDRPSGIPERFSGSNSGNTATLTINRVEAGDEADYYCQVWDSSNDLLIFGGGTKLTVLG	75300
